Would you kindly list Neutralization IC50, H3-Syd97 for each of these binders?
- ASSAY TARGET: HA of ca A/Sydney/5/97 (H3N2) (influenza A virus)
- METHOD: cell-based or functional assay
Answer as a quantity: numeral, then unit.

Task: State the recorded Neutralization IC50, H3-Syd97 for this entry: Antibody 13 (antibody, V domains shown) VH: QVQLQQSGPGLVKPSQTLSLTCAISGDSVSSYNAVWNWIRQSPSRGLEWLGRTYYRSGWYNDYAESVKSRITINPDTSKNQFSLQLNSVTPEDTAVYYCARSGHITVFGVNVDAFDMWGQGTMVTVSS VL: DIQMTQSPSSLSASVGDRVTITCRTSQSLSSYDHWYQQKPGKAPKLLIYAASSRLSGVPSRFSGSGSGTDFTLTISSLQPEDFATYYCQQSRTFGQGTKVEIK
Result: 2.18 µg/mL

Task: State the recorded Neutralization IC50, H3-Syd97 for this entry: Antibody 3 (antibody, V domains shown) VH: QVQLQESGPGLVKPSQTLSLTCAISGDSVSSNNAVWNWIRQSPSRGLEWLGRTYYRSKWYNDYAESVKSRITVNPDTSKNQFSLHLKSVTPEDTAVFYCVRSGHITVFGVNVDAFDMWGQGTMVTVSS VL: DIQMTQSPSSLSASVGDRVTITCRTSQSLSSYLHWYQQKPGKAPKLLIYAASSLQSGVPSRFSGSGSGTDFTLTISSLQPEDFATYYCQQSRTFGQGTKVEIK
Result: 6.5 µg/mL

Task: State the recorded Neutralization IC50, H3-Syd97 for this entry: Antibody 12 (antibody, V domains shown) VH: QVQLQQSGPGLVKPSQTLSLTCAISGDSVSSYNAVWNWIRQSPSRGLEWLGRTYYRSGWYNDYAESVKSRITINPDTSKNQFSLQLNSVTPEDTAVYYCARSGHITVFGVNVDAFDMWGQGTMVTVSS VL: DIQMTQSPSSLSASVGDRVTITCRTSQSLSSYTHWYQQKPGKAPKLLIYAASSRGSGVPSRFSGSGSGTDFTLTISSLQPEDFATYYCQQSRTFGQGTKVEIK
Result: 1.56 µg/mL
